Answer each item with its documented pIC50.
# target_or_test_system: human CA-II (Homo sapiens, UniProt P00918)
# Construct: purchased Sigma-Aldrich C6165
# measurement_notes: Carbonic Anhydrase-II (CA-II) Fluorimetric Assay-IC50 Determination
# Format: biochemical
# condition: Kd ND; read-out: CA-II IC50
Answers are plain numbers, as −log10 of the molar value.

Some solved entries appear below for comparison.
molecule="CCCN(CC1CC1)C(=O)c1nc(Cc2ccccc2)n(-c2ccc(S(N)(=O)=O)cc2)n1 [Example R-5]" endpoint_name=pIC50 numeric_result=8.66
molecule="NS(=O)(=O)c1ccc(-n2nc(C(=O)N3CCOc4ccccc4C3)nc2Cc2ccccc2)cc1 [Example R-7]" endpoint_name=pIC50 numeric_result=8.43
molecule="NS(=O)(=O)c1ccc(-n2nc(C(=O)N3CCc4ccccc4CC3)nc2Cc2ccccc2)cc1 [Example R-4]" endpoint_name=pIC50 numeric_result=8.47
molecule="CCN(CCCCO)C(=O)c1nc(Cc2ccccc2)n(-c2ccc(S(N)(=O)=O)cc2)n1 [Example R-19]" endpoint_name=pIC50 numeric_result=8.45

Hi team, please reply with pIC50 for each item in this list.
1. CN(C(=O)c1nc(Cc2ccccc2)n(-c2ccc(S(N)(=O)=O)cc2)n1)C1CCCCC1 [Example R-25]
2. NS(=O)(=O)c1ccc(-n2nc(C(=O)N3CCCCC3)nc2Cc2ccccc2)cc1 [Example R-24]

*A*
[8.60, 8.43]
